Below, each of the compounds is paired with its reported Activity value.
Target: Cannabinoid receptor 1 (Homo sapiens, UniProt P21554)
Sequence (P21554 whole entry): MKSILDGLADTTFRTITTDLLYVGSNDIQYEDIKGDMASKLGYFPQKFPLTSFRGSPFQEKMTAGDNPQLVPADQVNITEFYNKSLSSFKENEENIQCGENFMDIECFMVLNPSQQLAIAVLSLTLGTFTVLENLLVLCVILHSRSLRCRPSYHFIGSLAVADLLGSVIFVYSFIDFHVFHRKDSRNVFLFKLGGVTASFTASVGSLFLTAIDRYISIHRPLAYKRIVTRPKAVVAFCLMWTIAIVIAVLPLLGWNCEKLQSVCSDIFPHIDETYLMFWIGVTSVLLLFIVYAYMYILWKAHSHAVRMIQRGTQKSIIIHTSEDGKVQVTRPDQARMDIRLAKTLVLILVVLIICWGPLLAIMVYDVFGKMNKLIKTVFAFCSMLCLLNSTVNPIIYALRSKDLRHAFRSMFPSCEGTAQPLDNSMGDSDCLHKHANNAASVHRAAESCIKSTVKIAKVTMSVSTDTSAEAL
Test: Displacement of [3H]-CP55940 from human CB1 receptor expressed in CHO cells at 1 uM incubated for 90 mins by liquid scintillation spectrophotometry relative to control
Format: cell-based

>  <LINE NOTATION>
CCCCn1c(C)c(C(=O)c2ccc3c(c2)CC(C)(C)C3)c2ccccc21

>  <UNIT INFO>
%

>  <Activity>
43.5

$$$$
>  <LINE NOTATION>
CC/C=C\Cn1c(C)c(C(=O)c2ccc3c(c2)CC(C)(C)C3)c2ccccc21

>  <UNIT INFO>
%

>  <Activity>
43

$$$$
>  <LINE NOTATION>
CCC#CCn1c(C)c(C(=O)c2ccc3c(c2)CC(C)(C)C3)c2ccccc21

>  <UNIT INFO>
%

>  <Activity>
16.4

$$$$
>  <LINE NOTATION>
C#CCn1cc(C(=O)c2ccc3c(c2)CC(C)(C)C3)c2ccccc21

>  <UNIT INFO>
%

>  <Activity>
33.4

$$$$
>  <LINE NOTATION>
CC/C=C/Cn1c(C)c(C(=O)c2ccc3c(c2)CC(C)(C)C3)c2ccccc21

>  <UNIT INFO>
%

>  <Activity>
35.1

$$$$
>  <LINE NOTATION>
CCCn1c(C)c(C(=O)c2ccc3c(c2)CC(C)(C)C3)c2ccccc21

>  <UNIT INFO>
%

>  <Activity>
44.4

$$$$

* * *

deltaG overview
Target: Cannabinoid receptor 2 (Homo sapiens, UniProt P34972)
Sequence (P34972 whole entry): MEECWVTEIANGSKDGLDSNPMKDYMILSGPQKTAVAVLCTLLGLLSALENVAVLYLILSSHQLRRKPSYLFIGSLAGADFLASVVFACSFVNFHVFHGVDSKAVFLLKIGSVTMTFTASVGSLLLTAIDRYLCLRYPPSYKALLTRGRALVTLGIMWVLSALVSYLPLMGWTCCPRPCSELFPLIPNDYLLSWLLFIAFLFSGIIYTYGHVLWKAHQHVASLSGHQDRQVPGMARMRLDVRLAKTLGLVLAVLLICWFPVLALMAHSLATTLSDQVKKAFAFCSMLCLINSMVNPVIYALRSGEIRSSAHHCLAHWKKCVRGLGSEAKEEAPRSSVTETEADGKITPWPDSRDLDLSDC
Assay: Binding affinity to human CB2 receptor assessed as free binding energy
Format: cell-based
Conditions: CHO, filed as antagonist
OBSERVATION TYPE: deltaG

>  <LINE NOTATION>
C#CCCCn1cc(C(=O)c2ccc3c(c2)CC(C)(C)C3)c2ccccc21

>  <NUMERIC RESULT>
-10.5

$$$$
>  <LINE NOTATION>
C=CCCCn1cc(C(=O)c2ccc3c(c2)CC(C)(C)C3)c2ccccc21

>  <NUMERIC RESULT>
-10.7

$$$$
>  <LINE NOTATION>
C#CCCCn1c(C)c(C(=O)c2ccc3c(c2)CC(C)(C)C3)c2ccccc21

>  <NUMERIC RESULT>
-9.89

$$$$

* * *

Target: Cannabinoid receptor 1 (Homo sapiens)
Test: Displacement of [3H]-CP55940 from human CB1 receptor expressed in CHO cells at 1 uM incubated for 90 mins by liquid scintillation spectrophotometry relative to control
Assay type: cell-based
Settings: filed as antagonist

>  <LINE NOTATION>
CCCCCn1c(C)c(C(=O)c2ccc3c(c2)CC(C)(C)C3)c2ccccc21

>  <STUDY SYSTEM>
Cannabinoid receptor 1 (Homo sapiens)

>  <UNIT INFO>
%

>  <Activity>
53.8

$$$$
>  <LINE NOTATION>
CCCCn1cc(C(=O)c2ccc3c(c2)CC(C)(C)C3)c2ccccc21

>  <STUDY SYSTEM>
Cannabinoid receptor 1 (Homo sapiens)

>  <UNIT INFO>
%

>  <Activity>
82.7

$$$$
>  <LINE NOTATION>
CCCCCn1cc(C(=O)c2ccc3c(c2)CC(C)(C)C3)c2ccccc21

>  <STUDY SYSTEM>
Cannabinoid receptor 1 (Homo sapiens)

>  <UNIT INFO>
%

>  <Activity>
93.4

$$$$
>  <LINE NOTATION>
CC/C=C\Cn1cc(C(=O)c2ccc3c(c2)CC(C)(C)C3)c2ccccc21

>  <STUDY SYSTEM>
Cannabinoid receptor 1 (Homo sapiens)

>  <UNIT INFO>
%

>  <Activity>
60.7

$$$$
>  <LINE NOTATION>
CC1(C)Cc2ccc(C(=O)c3cn(Cc4ccc(F)cc4)c4ccccc34)cc2C1

>  <STUDY SYSTEM>
Cannabinoid receptor 1 (Homo sapiens)

>  <UNIT INFO>
%

>  <Activity>
88

$$$$
